Tested on: IKKε-mediated phosphorylation of IRF3
EXPERIMENTAL_DETAILS: In-situ phosphorylation of IRF3 (pIRF3 Ser396 ELISA) in HEK293T cells cotransfected with IRF3 and IKKε
Format: cell-based
CONDITIONS_USED: Homo sapiens, HEK-293T; HEK293T cells in culture, Table 3; read-out: pIRF3 ELISA IC50
pIC50: −log10 of the molar value.
QUANTITY: pIC50

Example compounds with recorded pIC50:
SMILES_INPUT	pIC50
N#Cc1cc(-c2ccnc(Nc3ccc(CO)cc3)n2)ccc1OC1CCOCC1	6.85
CN1CCN(CCNc2cccc(Nc3nccc(-c4ccc(OC5CCOCC5)c(C#N)c4)n3)c2)CC1	7.01
N#Cc1cc(-c2ccnc(Nc3ccc(Cn4ccnc4)cc3)n2)ccc1OC1CCOCC1	7.04

(A) N#Cc1cc(-c2ccnc(Nc3ccc(N4CCOCC4)cc3)n2)ccc1NC(=O)CC(F)(F)F
(B) COc1cc(Nc2nccc(-c3ccc(OC4CCOCC4)c(C#N)c3)n2)ccc1C(=O)NCCN(C)C
## Input Dear colleague, could you let me know whether A or B has the lower recorded pIC50? Thanks. // respond with label for picked entry
## Output A

###

TARGET_OR_SYSTEM: TBK1 (Homo sapiens)
Construct: His-tag; made in house; host or cells: Sf9 insect cells
Sequence (Q9UHD2 1-729): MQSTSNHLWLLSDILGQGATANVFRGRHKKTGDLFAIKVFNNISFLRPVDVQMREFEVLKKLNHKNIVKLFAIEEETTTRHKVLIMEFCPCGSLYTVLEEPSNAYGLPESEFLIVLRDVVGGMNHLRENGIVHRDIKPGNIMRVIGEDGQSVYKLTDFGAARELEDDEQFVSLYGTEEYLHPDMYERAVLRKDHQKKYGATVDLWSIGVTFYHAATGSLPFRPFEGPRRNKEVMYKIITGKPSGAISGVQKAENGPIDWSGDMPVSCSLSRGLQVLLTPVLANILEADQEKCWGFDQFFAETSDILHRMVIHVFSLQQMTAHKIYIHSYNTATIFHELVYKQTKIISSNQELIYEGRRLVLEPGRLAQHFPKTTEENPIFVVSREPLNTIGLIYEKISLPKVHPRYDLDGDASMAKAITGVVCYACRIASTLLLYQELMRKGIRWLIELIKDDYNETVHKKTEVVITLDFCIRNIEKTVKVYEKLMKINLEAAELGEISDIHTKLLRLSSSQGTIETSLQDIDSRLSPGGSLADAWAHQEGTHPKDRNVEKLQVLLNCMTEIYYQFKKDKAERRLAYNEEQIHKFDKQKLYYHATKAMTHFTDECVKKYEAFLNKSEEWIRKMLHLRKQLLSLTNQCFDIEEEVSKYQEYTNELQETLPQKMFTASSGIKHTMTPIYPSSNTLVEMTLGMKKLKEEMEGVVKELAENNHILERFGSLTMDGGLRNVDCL
EXPERIMENTAL_DETAILS: In-vitro TBK1 kinase assay ([γ33]ATP filter-plate)
Format: biochemical
CONDITIONS_USED: text bins; read-out: IC50 for inhibition of the kinase activity of TBK1
# IC50 listing for each entry below

MOLECULE	TARGET_OR_SYSTEM	OBSERVED_VALUE
N#Cc1cc(-c2ccnc(Nc3ccc(N4CCOCC4)cc3)n2)ccc1OCCCN [compound 447]	TBK1 (Homo sapiens)	0.01 to 0.1 µM
COc1ccc(-c2ccnc(Nc3cccc(NC(C)=O)c3)n2)cc1C#N [Example 70]	TBK1 (Homo sapiens)	0.01 to 0.1 µM
N#Cc1cc(-c2ccnc(Nc3ccc(CNC(=O)c4cnc(N)s4)cc3)n2)ccc1OC1CCOCC1 [compound 490]	TBK1 (Homo sapiens)	< 0.01 µM
N#Cc1cc(-c2ccnc(Nc3ccc(N4CCOCC4)cc3)n2)ccc1OCCN [Example 220]	TBK1 (Homo sapiens)	< 0.01 µM

## Input Give the reported value of IC50 for this record: COc1cc(Nc2nccc(-c3ccc(OC4CCOCC4)c(C#N)c3)n2)ccc1OCCOCCNS(C)(=O)=O [Example 22]
## Output < 0.01 µM

## Input Return IC50 (reported value) for this molecule: COc1cccc(Nc2nccc(-c3cccc(C#N)c3)n2)c1 [compound 389]
## Output 0.1 to 0.5 µM
